Biological target: T1, TNFR1 (Homo sapiens, UniProt P19438)
T1 chain: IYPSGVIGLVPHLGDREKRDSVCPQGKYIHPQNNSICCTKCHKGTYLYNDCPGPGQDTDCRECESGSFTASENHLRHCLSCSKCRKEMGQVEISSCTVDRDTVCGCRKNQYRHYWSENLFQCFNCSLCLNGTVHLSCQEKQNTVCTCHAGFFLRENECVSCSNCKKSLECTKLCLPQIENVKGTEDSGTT
Assay: yeast display SC50
In this section we review reported apparent Kd (screen) values for a set of binders.
# unit: nM | format: bare number

Please review the entries below; each comes with its answer.
A15H (designed binder) MTLQELLREEALRRHEAEAFRYALELLAEKFPEQKEYLLDLAEEIESQIRSLSGVDVEDVRKFLDKEWAWVKELLAEHPAELAEVEAARAARLAELRAEVEAKVAA ... 0.539
E77Y (designed binder) MTLQELLREEALRRAEAEAFRYALELLAEKFPEQKEYLLDLAEEIESQIRSLSGVDVEDVRKFLDKEWAWVKELLAYHPAELAEVEAARAARLAELRAEVEAKVAA ... 0.49
Y37A (designed binder) MTLQELLREEALRRAEAEAFRYALELLAEKFPEQKEALLDLAEEIESQIRSLSGVDVEDVRKFLDKEWAWVKELLAEHPAELAEVEAARAARLAELRAEVEAKVAA ... 24.4

# input for lookup
For R89I (designed binder) MTLQELLREEALRRAEAEAFRYALELLAEKFPEQKEYLLDLAEEIESQIRSLSGVDVEDVRKFLDKEWAWVKELLAEHPAELAEVEAAIAARLAELRAEVEAKVAA , write its apparent Kd (screen).
0.653
